This collection of values is drawn from the supplement of paper PMC10127200.

System: 786-O
Assay: Euclidean distance of Cell Painting phenotypic profile (signed KS, 77 features) to DMSO centroid (dimensionless distance); 5 or 10 uM (library dependent); higher = stronger phenotypic change vs DMSO (phenoactivity)
Conditions: 48 h
Structures can show the parent of a compound that is named as a salt.
property name: Euclidean distance
API note: the answer field is a bare number with no unit suffix.

See these solved cases before continuing.
1. CC1(C)CCC[C@]2(C)[C@H]3CC(=O)O[C@]3(C)CC[C@@H]12 [Sclareolide]: 1.98
2. O=C(Nc1ccc(OC(F)(F)F)cc1)c1sccc1NCc1ccnc2ccccc12: 1.19
3. CCCCC(CC)COC(=O)CC(C(=O)OCC(CC)CCCC)S(=O)(=O)O (stereo not drawn) [Docusate Sodium]: 0.771
4. O=c1ccc2cc(O)c(O)cc2o1 [Esculetin]: 1.31
5. OC[C@H]1O[C@@H](c2ccc(Cl)c(Cc3ccc(O[C@H]4CCOC4)cc3)c2)[C@H](O)[C@@H](O)[C@@H]1O: 0.965
6. N=C(N)c1ccc(N=NNc2ccc(C(=N)N)cc2)cc1 [Diminazene Aceturate]: 1.25
7. CCCCNc1ccc(C(=O)OCCN(C)C)cc1 [Tetracaine HCl]: 0.993
8. COC(=O)C1=CO[C@@H](O)[C@@H]2C(CO)=CC[C@H]12 [Genipin]: 1.19

Qu. Hello, I am looking for reported Euclidean distance with 786-O for NC(CO)C(=O)NNCc1ccc(O)c(O)c1O (stereo not drawn) [Benserazide HCl] . Could you help?
Ans. 1.18

Qu. Hello, I am looking for reported Euclidean distance with 786-O for O=C1c2ccc(Nc3ccc(F)cc3F)cc2CCc2ccc(OC[C@H](O)CO)cc21 [Skepinone-L] . Could you help?
Ans. 1.06

Qu. Hello, I am looking for reported Euclidean distance with 786-O for CO[C@H]1/C=C/O[C@@]2(C)Oc3c(C)c(O)c4c(O)c(c(/C=N/N5CCN(C)CC5)c(O)c4c3C2=O)NC(=O)/C(C)=C\C=C\[C@H](C)[C@H](O)[C@@H](C)[C@@H](O)[C@@H](C)[C@H](OC(C)=O)[C@@H]1C [Rifampin] . Could you help?
Ans. 1.56

Qu. Hello, I am looking for reported Euclidean distance with 786-O for COc1cc(C)c(/C=C/C(C)=C/C=C/C(C)=C/C(=O)O)c(C)c1C [Acitretin] . Could you help?
Ans. 1.13

Qu. Hello, I am looking for reported Euclidean distance with 786-O for CC(C)N1CCN(c2ccc(OCC3COC(Cn4cncn4)(c4ccc(Cl)cc4Cl)O3)cc2)CC1 (stereo not drawn) [Terconazole] . Could you help?
Ans. 1.82
